src = ChEMBL document CHEMBL3399947

systemUnderTest: UniProt P31650
Sequence (P31650 whole entry): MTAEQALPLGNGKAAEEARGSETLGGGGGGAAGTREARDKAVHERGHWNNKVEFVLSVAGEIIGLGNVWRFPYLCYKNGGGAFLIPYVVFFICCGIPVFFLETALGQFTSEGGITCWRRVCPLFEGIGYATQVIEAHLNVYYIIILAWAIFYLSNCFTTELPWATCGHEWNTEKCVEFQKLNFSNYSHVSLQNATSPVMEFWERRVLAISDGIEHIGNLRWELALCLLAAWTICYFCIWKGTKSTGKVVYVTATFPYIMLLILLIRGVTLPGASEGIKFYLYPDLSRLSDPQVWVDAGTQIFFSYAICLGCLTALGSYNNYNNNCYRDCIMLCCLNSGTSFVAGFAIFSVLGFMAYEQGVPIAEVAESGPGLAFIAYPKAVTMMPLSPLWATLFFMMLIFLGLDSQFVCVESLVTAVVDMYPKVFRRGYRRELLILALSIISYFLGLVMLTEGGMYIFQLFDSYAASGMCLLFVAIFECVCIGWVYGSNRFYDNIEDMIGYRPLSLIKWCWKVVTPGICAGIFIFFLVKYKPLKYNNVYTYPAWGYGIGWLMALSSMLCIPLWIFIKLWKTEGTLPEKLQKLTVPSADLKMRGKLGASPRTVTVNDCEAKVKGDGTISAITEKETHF
assayOverview: Inhibition of mouse mGAT4 expressed in HEK293 cells assessed as inhibition of [3H]GABA uptake after 3 mins incubation by TopCount microplate scintillation counting analysis
Format: cell-based
condition: read-out: IC50
Record form. Attribute: pIC50. Fill in for each entry.
Give bare numbers, as −log10 of the molar value.

CCOC(=O)[C@H]1CCCC[C@H]1N(C)CCON=C(c1ccccc1)c1ccccc1	3.08

Hi, could you look up pIC50 for each item in my list?
1. CN(CCOC(c1ccc(C(F)(F)F)cc1)c1ccc(C(F)(F)F)cc1)[C@@H]1CCCC[C@@H]1CO
2. O=C(O)CCNCCC=C1c2ccccc2CCc2ccccc21

-- reply
1: 3.06; 2: 2.39

====

systemUnderTest: GABA transporter 2 (Mus musculus, UniProt P31651)
Sequence (P31651 whole entry): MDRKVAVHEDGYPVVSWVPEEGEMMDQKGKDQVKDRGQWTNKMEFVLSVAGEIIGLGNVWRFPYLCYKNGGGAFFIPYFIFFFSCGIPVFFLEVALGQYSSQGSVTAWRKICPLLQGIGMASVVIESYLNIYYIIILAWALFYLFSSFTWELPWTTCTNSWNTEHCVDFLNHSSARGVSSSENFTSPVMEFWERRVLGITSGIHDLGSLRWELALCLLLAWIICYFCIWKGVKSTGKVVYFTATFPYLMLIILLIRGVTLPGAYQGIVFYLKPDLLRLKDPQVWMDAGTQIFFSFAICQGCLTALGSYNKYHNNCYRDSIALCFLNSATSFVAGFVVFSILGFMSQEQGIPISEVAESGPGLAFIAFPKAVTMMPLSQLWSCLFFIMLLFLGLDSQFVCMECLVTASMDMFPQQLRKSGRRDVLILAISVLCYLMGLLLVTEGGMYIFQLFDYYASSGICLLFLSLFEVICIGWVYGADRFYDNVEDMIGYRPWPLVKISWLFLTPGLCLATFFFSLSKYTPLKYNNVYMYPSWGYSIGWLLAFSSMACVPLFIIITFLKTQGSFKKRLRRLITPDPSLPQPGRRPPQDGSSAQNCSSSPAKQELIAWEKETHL
assayOverview: Inhibition of mouse mGAT2 expressed in HEK293 cells assessed as inhibition of [3H]GABA uptake after 3 mins incubation by TopCount microplate scintillation counting analysis
Assay type: cell-based
condition: read-out: IC50
pIC50: −log10 of the molar value.
Mark True for reported pIC50 of 4 or greater; mark False for anything smaller.

CN(CCC=C1c2ccccc2CCc2ccccc21)[C@@H]1CCCC[C@@H]1CO	True
O=C(O)C1CN(CCO)CCN(CCON=C(c2ccccc2)c2ccccc2)C1 (stereo unspecified)	False
Cc1ccsc1C(=CCCN(C)C1CCCC=C1C(=O)O)c1sccc1C (stereo in doubt; (E1)-6a)	True
O=C(O)CCNCCON=C(c1ccccc1)c1ccccc1	False
Cc1ccsc1C(=CCCN1CCNCC(C(=O)O)C1)c1sccc1C (stereo unspecified)	False

-- ask Identify whether the reported pIC50 of the following molecule is 4 or greater: CCN1CCN(CCC=C(c2sccc2C)c2sccc2C)CC(C(=O)O)C1 (stereo unspecified)
-- reply False

-- ask Request: Cc1ccsc1C(=CCCNCCC(=O)O)c1sccc1C
-- reply False

-- ask Request: CN(CCC=C1c2ccccc2CCc2ccccc21)[C@H]1CCCC[C@@H]1C(=O)O
-- reply False

-- ask Request: Cc1ccsc1C(=CCCN1CCN(Cc2ccccc2)CC(C(=O)O)C1)c1sccc1C (stereo unspecified)
-- reply False

-- ask Request: Cc1ccsc1C(=CCCN1CCNCC1C(=O)O)c1sccc1C (racemic)
-- reply False

====

systemUnderTest: Sodium- and chloride-dependent GABA transporter 1 (Mus musculus)
assayOverview: Inhibition of mouse mGAT1 expressed in HEK293 cells assessed as inhibition of [3H]GABA uptake after 3 mins incubation by TopCount microplate scintillation counting analysis
Format: cell-based
condition: read-out: IC50
Record form. Attribute: pIC50. Fill in for each entry.
Answers are plain numbers, as −log10 of the molar value.

Hi, could you look up pIC50 for each item in my list?
1. CN(CCON=C(c1ccccc1)c1ccccc1)[C@H]1CCCC[C@H]1CO
2. CN(CCOC(c1ccc(C(F)(F)F)cc1)c1ccc(C(F)(F)F)cc1)[C@@H]1CCCC[C@@H]1CO
3. CN(CCC=C1c2ccccc2CCc2ccccc21)CCC(=O)O
4. Cc1ccsc1C(=CCCN(C)CCC(=O)O)c1sccc1C

-- reply
1. 3.38
2. 3.65
3. 4.11
4. 3.02

====

systemUnderTest: GABA transporter 3 (Mus musculus)
Sequence (P31649 whole entry): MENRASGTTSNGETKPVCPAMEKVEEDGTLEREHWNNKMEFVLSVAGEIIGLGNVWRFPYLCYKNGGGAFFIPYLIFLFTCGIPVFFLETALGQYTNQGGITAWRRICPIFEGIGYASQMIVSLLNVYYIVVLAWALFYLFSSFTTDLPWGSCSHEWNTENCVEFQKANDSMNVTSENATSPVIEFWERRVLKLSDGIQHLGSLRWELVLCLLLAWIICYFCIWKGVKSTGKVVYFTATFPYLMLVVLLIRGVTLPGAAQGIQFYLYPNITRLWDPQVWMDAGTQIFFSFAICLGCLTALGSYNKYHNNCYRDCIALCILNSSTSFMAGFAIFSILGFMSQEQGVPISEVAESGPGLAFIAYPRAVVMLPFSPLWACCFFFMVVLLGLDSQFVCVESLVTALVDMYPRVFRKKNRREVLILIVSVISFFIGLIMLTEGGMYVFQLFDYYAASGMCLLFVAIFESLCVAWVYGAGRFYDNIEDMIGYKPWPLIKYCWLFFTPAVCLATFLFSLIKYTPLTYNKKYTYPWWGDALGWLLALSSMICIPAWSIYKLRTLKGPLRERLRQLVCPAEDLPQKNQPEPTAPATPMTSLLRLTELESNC
assayOverview: Inhibition of mouse mGAT3 expressed in HEK293 cells assessed as inhibition of [3H]GABA uptake after 3 mins incubation by TopCount microplate scintillation counting analysis
Format: cell-based
condition: read-out: IC50
metric: IC50

Hi, could you look up IC50 for each item in my list?
1. O=C(O)C1CNCCN(CCON=C(c2ccccc2)c2ccccc2)C1 (stereo not drawn)
2. O=C(O)CCNCCON=C(c1ccccc1)c1ccccc1
3. O=C(O)C1CNCCN1CCON=C(c1ccccc1)c1ccccc1 (racemic)
4. CN(CCC=C1c2ccccc2CCc2ccccc21)[C@H]1CCCC[C@@H]1C(=O)O
5. CCOC(=O)[C@H]1CCCC[C@H]1N(C)CCC=C1c2ccccc2CCc2ccccc21
6. CN(CCC=C1c2ccccc2CCc2ccccc21)[C@@H]1CCCC[C@H]1C(=O)O
7. Cc1ccsc1C(=CCCN(C)C1CCCC=C1C(=O)O)c1sccc1C (stereo in doubt; (E2)-6a)
8. CN(CCC=C1c2ccccc2CCc2ccccc21)[C@H]1CCCC[C@H]1C(=O)O

-- reply
1: > 1000 µM; 2: 290 µM; 3: > 1000 µM; 4: 1240 µM; 5: 1400 µM; 6: 966 µM; 7: 584 µM; 8: 1840 µM

Hi, could you look up IC50 for each item in my list?
1. CN(CCON=C(c1ccccc1)c1ccccc1)[C@@H]1CCCC[C@@H]1C(=O)O
2. CCN1CCN(CCC=C(c2sccc2C)c2sccc2C)CC(C(=O)O)C1 (stereo not drawn)
3. Cc1ccsc1C(=CCCN(C)[C@@H]1CCCC[C@H]1C(=O)O)c1sccc1C
4. Cc1ccsc1C(=CCCN1CCNCC(C(=O)O)C1)c1sccc1C (stereo not drawn)
5. CN(CCCP(=O)(O)O)CCON=C(c1ccccc1)c1ccccc1
6. CN(CCON=C(c1ccccc1)c1ccccc1)[C@@H]1CCCC[C@@H]1CO

-- reply
1: > 1000 µM; 2: 1700 µM; 3: 633 µM; 4: 844 µM; 5: > 1000 µM; 6: 349 µM

Hi, could you look up IC50 for each item in my list?
1. CNCCC=C(c1sccc1C)c1sccc1C
2. CCOC(=O)[C@H]1CCCC[C@H]1N(C)CCC=C(c1sccc1C)c1sccc1C
3. Cc1ccsc1C(=CCCN1CCN(CCO)CC(C(=O)O)C1)c1sccc1C (stereo not drawn)
4. Cc1ccsc1C(=CCCN1CCNCC1C(=O)O)c1sccc1C (racemic)
5. Cc1ccsc1C(=CCCN1CCN(Cc2ccccc2)CC(C(=O)O)C1)c1sccc1C (stereo not drawn)
6. Cc1ccsc1C(=CCCN(C)[C@H]1CCCC[C@@H]1C(=O)O)c1sccc1C
7. O=C(O)C1CN(CCON=C(c2ccccc2)c2ccccc2)CCN1 (racemic)
8. CN(CCC=C1c2ccccc2CCc2ccccc21)[C@@H]1CCCC[C@@H]1C(=O)O

-- reply
1: 137 µM; 2: 654 µM; 3: > 1000 µM; 4: 1660 µM; 5: > 1000 µM; 6: 478 µM; 7: > 1000 µM; 8: 1030 µM

-- ask # query: IC50 of entry CN(CCOC(c1ccc(C(F)(F)F)cc1)c1ccc(C(F)(F)F)cc1)[C@@H]1CCCC[C@@H]1C(=O)O
-- reply 336 µM
